- TARGET OF ASSAY: T1, NSP2 (Rotavirus (strain  in …, UniProt A2T3N6 1-317))
- T1 sequence: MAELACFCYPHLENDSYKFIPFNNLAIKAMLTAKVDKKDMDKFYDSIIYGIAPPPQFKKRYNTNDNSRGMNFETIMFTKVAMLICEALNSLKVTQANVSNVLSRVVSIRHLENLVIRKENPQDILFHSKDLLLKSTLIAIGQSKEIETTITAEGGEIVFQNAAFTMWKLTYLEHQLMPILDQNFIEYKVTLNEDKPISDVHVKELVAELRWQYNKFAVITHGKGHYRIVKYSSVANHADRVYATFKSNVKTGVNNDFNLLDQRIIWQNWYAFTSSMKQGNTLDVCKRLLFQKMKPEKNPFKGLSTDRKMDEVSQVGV
- METHOD NOTES: fluorescence anisotropy; no Mg2+; one value given for all three RNAs
- CONDITION: protein: recombinant; chain copies: 8; label: 5' AlexaFluor488; hairpin, -3.8 kcal/mol
pKd: −log10 of the molar value.
PROPERTY: pKd

Could you please provide reported pKd for CUUCUUUCGAAAUUAAGAAG (structured_RNA) [metastable 20mer] ? Thanks!
~7.70
